Data origin: patent US20110294843A1

# Assay: Pharmacokinetics of M6G at single and multiple intravenous doses in healthy volunteers
# Assay type: in vivo, human
# Conditions: both sexes, human, plasma, intravenous, 15 mg/70 kg, multiple dose, Dose 1-15 mg; Mean
Readout Name: clearance (mL/min)
Answer format: numeric, mL/min implied, no suffix.

clearance in this record for CN1CC[C@]23c4c5ccc(O)c4O[C@H]2[C@@H](OC2OC(C(=O)O)C(O)C(O)C2O)C=CC3[C@H]1C5 (stereo partly shown) [M6G] : 119

* * *

# Assay: Pharmacokinetics of M6G at single and multiple intravenous doses in healthy volunteers
# Assay type: in vivo, human
# Conditions: both sexes, human, plasma, iv, 45 mg/70 kg, single 5 min iv infusion 45 mg; Mean; read-out: t½ (converted)
Readout Name: half-life
Value and unit, in that order.

Record summary for CN1CC[C@]23c4c5ccc(O)c4O[C@H]2[C@@H](OC2OC(C(=O)O)C(O)C(O)C2O)C=CC3[C@H]1C5 (stereo partly shown) [M6G] : reported half-life = 1.64 h
